Values from ChEMBL document CHEMBL4842329

# key: entry, value: Ki
Biological target: Sodium-dependent serotonin transporter (Homo sapiens)
Sequence (P31645 whole entry): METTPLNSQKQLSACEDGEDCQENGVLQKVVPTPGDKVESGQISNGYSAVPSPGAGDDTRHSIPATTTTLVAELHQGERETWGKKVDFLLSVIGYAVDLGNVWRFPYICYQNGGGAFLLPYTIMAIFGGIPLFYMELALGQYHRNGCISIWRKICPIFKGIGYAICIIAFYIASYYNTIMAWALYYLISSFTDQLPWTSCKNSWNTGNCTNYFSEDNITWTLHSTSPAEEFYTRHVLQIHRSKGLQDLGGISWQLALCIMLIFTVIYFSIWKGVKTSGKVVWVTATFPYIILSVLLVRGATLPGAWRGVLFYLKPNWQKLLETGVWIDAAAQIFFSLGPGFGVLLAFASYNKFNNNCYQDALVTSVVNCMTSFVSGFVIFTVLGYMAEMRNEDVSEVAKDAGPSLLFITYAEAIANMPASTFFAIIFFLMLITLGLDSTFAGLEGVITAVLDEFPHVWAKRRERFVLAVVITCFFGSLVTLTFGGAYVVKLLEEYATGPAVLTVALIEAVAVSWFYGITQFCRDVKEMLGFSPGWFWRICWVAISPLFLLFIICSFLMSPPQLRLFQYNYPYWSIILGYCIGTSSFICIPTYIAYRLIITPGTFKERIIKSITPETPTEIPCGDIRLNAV
Test: biochemical
Type: cell-based, HEK293
measured-endpoint: Ki (µM)

* COCCCC/C(=N\OCCN)c1ccc(I)cc1 | 0.015
* COCCCC/C(=N\OCCN)c1ccc(Cl)c(Cl)c1 | 0.009
* CNCCC(Oc1ccc(Cl)c(Cl)c1)c1ccccc1 (stereo not drawn) | 0.005
* CNCCC(Oc1ccc(Cl)c(F)c1)c1ccccc1 (stereo not drawn) | 0.031
* CNCCC(Oc1ccc(Br)cc1F)c1ccccc1 (stereo not drawn) | 0.041
* CNCCC(Oc1ccc(Cl)cc1F)c1ccccc1 (stereo not drawn) | 0.052
* COCCCC/C(=N\OCCN)c1ccc(Cl)cc1 | 0.061
* CNCCC(Oc1ccc(I)cc1F)c1ccccc1 (stereo not drawn) | 0.023
* CNCCC(Oc1ccc(Br)cc1)c1ccccc1 (stereo not drawn) | 0.024
* CNCCC(Oc1cccc(Cl)c1)c1ccccc1 (stereo not drawn) | 0.066
* CNCCC(Oc1ccc(I)cc1)c1ccccc1 (stereo not drawn) | 0.014
* CNCCC(Oc1ccc(Br)c(F)c1)c1ccccc1 (stereo not drawn) | 0.019
* COCCCC/C(=N\OCCN)c1ccc(Br)c(F)c1 | 0.021
